Biological target: panel of 255 wild-type kinases (Homo sapiens, UniProt Q9UPE1)
Sequence (Q9UPE1 whole entry): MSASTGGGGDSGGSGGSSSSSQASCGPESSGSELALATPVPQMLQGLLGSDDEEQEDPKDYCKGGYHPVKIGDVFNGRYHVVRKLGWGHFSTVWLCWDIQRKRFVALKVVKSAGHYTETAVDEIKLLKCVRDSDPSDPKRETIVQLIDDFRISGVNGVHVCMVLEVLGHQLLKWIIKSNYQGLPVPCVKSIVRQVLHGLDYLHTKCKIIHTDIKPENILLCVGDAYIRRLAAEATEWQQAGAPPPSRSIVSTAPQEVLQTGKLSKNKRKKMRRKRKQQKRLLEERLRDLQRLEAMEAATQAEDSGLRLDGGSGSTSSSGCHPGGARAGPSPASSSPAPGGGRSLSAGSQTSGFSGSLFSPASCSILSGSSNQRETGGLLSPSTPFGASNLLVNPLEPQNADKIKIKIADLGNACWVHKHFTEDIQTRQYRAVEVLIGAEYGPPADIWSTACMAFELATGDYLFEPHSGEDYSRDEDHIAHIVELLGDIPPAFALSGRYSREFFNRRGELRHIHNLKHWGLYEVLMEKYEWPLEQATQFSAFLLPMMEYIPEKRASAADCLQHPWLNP
Assay: Kinase panel profiling at 1 µmol/L (MSA or IMAP), percentage inhibition
Type: biochemical
Details: MSSK1; 1 µmol/L single concentration; read-out: %-inhibition, MSSK1
Measured endpoint: inhibition at 1 µM

                                   compound                             target_system  value_reported
0  Cc1cc(Nc2ncnc3ccc(NC4=NC(C)(C)CO4)cc23)ccc1Oc1ccn2ncnc2c1 [tucatinib]  panel of 255 wild-type kinases (Homo sapiens, UniProt Q9UPE1)           1.14%
1  CN1CCN(c2ccc(C(=O)Nc3n[nH]c4ccc(Cc5cc(F)cc(F)c5)cc34)c(NC3CCOCC3)c2)CC1 [entrectinib]  panel of 255 wild-type kinases (Homo sapiens, UniProt Q9UPE1)             12%
2  Cc1nc(NC(=O)N2CCC[C@H]2C(N)=O)sc1-c1ccnc(C(C)(C)C(F)(F)F)c1 [alpelisib]  panel of 255 wild-type kinases (Homo sapiens, UniProt Q9UPE1)          -3.38%
3  C=CC(=O)N1CCC([C@@H]2CCNc3c(C(N)=O)c(-c4ccc(Oc5ccccc5)cc4)nn32)CC1 [zanubrutinib]  panel of 255 wild-type kinases (Homo sapiens, UniProt Q9UPE1)          -2.31%

---

Each entry below carries its recorded inhibition at 1 µM.
Target: panel of 255 wild-type kinases (Homo sapiens)
Test: Kinase panel profiling at 1 µmol/L (MSA or IMAP), percentage inhibition
Assay type: biochemical
Settings: CDC2/CycB1 kinase assay; 1 µmol/L single concentration; read-out: %-inhibition CDC2/CycB1
Measured endpoint: inhibition at 1 µM (%)

>>> print(df.to_string())
                                   molecule                             target_system  unit_descriptor  value_reported
0  C=CC(=O)N1CCC([C@@H]2CCNc3c(C(N)=O)c(-c4ccc(Oc5ccccc5)cc4)nn32)CC1 [zanubrutinib]  panel of 255 wild-type kinases (Homo sapiens)                %              -7
1  Cn1cnc2c(F)c(Nc3ccc(Br)cc3F)c(C(=O)NOCCO)cc21 [binimetinib]  panel of 255 wild-type kinases (Homo sapiens)                %            2.36
2  Cn1cnc2c(F)c(Nc3ccc(Br)cc3Cl)c(C(=O)NOCCO)cc21 [selumetinib]  panel of 255 wild-type kinases (Homo sapiens)                %             -11
3  COC(=O)N[C@@H](C)CNc1nccc(-c2cn(C(C)C)nc2-c2cc(Cl)cc(NS(C)(=O)=O)c2F)n1 [encorafenib]  panel of 255 wild-type kinases (Homo sapiens)                %               8

---

Target: panel of 255 wild-type kinases (Homo sapiens, UniProt P49761)
Sequence (P49761 whole entry): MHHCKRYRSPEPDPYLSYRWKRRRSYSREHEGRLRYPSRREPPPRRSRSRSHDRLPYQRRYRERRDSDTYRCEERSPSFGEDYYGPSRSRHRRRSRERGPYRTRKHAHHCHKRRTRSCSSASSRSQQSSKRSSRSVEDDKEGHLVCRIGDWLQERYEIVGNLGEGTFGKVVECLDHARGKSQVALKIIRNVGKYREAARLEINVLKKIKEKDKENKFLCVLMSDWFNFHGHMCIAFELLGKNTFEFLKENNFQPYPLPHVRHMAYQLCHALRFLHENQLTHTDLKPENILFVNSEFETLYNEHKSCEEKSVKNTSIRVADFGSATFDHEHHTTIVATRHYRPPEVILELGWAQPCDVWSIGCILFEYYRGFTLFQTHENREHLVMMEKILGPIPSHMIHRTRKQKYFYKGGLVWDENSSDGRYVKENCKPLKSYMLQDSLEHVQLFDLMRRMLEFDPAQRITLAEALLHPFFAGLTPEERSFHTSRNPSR
Test: Kinase panel profiling at 1 µmol/L (MSA or IMAP), percentage inhibition
Format: biochemical
Details: kinase CLK3; 1 µmol/L single concentration; read-out: %-inhibition at 1 µmol/L, CLK3
Measured endpoint: inhibition at 1 µM (%)

>>> print(df.to_string())
                                 smiles_str   measured_endpoint  unit_descriptor  value_reported
0  CCN1CCN(c2ccc(Nc3cc(N(C)C(=O)Nc4c(Cl)c(OC)cc(OC)c4Cl)ncn3)cc2)CC1  inhibition at 1 µM                %              12
1  Cc1cc(Nc2ncnc3ccc(NC4=NC(C)(C)CO4)cc23)ccc1Oc1ccn2ncnc2c1  inhibition at 1 µM                %            5.42
2  Cn1cnc2c(F)c(Nc3ccc(Br)cc3F)c(C(=O)NOCCO)cc21  inhibition at 1 µM                %           0.514
3  Cn1cc(-c2cc3c(N4CCN(c5ncc([C@@](C)(N)c6ccc(F)cc6)cn5)CC4)ncnn3c2)cn1  inhibition at 1 µM                %            3.76
